Would you kindly list cytotoxicity for each of these molecules?
Assay: cytotoxicity in HPDE-C7 cells, cell-based, fluorescence, HTS (AID 430);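 further: cells exposed to compound for 48 hours before viability readout; 0% = vehicle and 100% = reference cytotoxic drug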
Details: HPDE-C7 pancreatic duct cells viability, at 10 µM, hits give high values
In all, about 63,000 compounds went through this assay and about 1,100 (1.7%) were called active. The list comes from a sample in which actives are over-represented; it also holds close analogues and randomly drawn compounds. Entries with a potency or affinity are not part of this list.
Give bare numbers, in %.

INSERT INTO results (molecule, numeric_value) VALUES
  ('O=C(c1ccco1)N1CCN(C(c2ccccc2)c2nnnn2Cc2cccs2)CC1 (stereo unspecified)', 7.3);

Go through the items and report each one's cytotoxicity.
1. O=C(COc1cccc(-n2cnnn2)c1)N1CCOCC1
2. O=C(Oc1cc2oc(=O)c3c(c2cc1Cl)CCCC3)c1ccco1
3. CNC(=O)NC(=O)CSc1cccc(C(F)(F)F)c1
4. Cc1ccc(-c2cc(-c3ccccc3)c(C#N)c(N)n2)o1
5. COc1ccc(-n2c(Cc3cccn3C)nnc2SCC(=O)Nc2nccs2)cc1
6. Cc1ccc(-c2cc(-c3ccccc3Cl)c(C#N)c(N)n2)o1

1: 18.5; 2: -3.8; 3: -6.3; 4: 29.8; 5: 5.7; 6: 11.3

Each molecule below has a recorded value; state its cytotoxicity.
1. CCn1cc(C(=O)NC2CCCCCC2)c2cc(OC)c(OC)cc2c1=O
2. C=CCc1cc(C)ccc1OCC(O)CN1CCN(c2ccccc2)CC1 (stereo unspecified)

-1.3
22.9

Record cytotoxicity for all entries; do not skip any.
1. Cc1ccc(-c2cc(-c3ccc(C)o3)nc(N)c2C#N)cc1
2. COC(=O)c1[nH]c2cc(OC)ccc2c1NC(=O)CN1CCOCC1

1. 20.9
2. 9.3

* * *

Experiment: cytotoxicity in HPDE-C7 cells, cell-based, fluorescence, HTS (AID 430);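 further: cells exposed to compound for 48 hours before viability readout; 0% = vehicle and 100% = reference cytotoxic drug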
Settings: HPDE-C7 pancreatic duct cells viability, at 10 µM, hits give high values
About 1,100 (1.7%) of roughly 63,000 compounds were called active. Many of the other results were omitted from the sample, so actives are more common in it than they were. Entries with a potency or affinity are not part of this list.
MEASURE: cytotoxicity

Below, 10 compounds whose answers are already recorded.
INSERT INTO assay_data (compound, result) VALUES
  ('COc1cccc(-c2nc(NC(C)C)c3ccccc3n2)c1O', '23.8% (inactive)'),
  ('Cc1ccc2c(COn3nnc4ccc(S(=O)(=O)N(C)C)cc43)cc(=O)oc2c1C', '-2.2% (inactive)'),
  ('O=C(CN(Cc1ccc2c(c1)OCO2)C(=O)c1cnsn1)NC1CCCC1', '7% (inactive)'),
  ('CCCc1cc(-c2[nH]ncc2-c2ccc(C(=O)OCC)o2)c(O)cc1O', '4.4% (inactive)'),
  ('CCC1CCCCN1c1nc(-c2cccc(OC)c2O)nc2ccccc12 (stereo unspecified)', '-2.8% (inactive)'),
  ('CCOC(=O)C1=C(C)NC2=C(C(=O)CCC2)C1c1ccc(N(C)C)cc1 (stereo unspecified)', '1.2% (inactive)'),
  ('O=C(CCc1ccccc1)Nc1nnc(-c2cccs2)o1', '-3% (inactive)'),
  ('O=C(C1CCN(c2nnc(-n3cccc3)s2)CC1)N1CCN(Cc2ccc3c(c2)OCO3)CC1', '-3.5% (inactive)'),
  ('CCn1c(SCc2nc3ccccc3[nH]2)nnc1-c1ccccc1OC', '-14.9% (inactive)'),
  ('CCC(C)Nc1nc(-c2cccc(OC)c2O)nc2ccccc12 (stereo unspecified)', '107% (active)');

I need cytotoxicity for every entry listed below, if you could help.
1. C=CCNc1nc(-c2cccc(OC)c2O)nc2ccccc12
2. CCc1cc(-c2[nH]ncc2-c2ccc3c(c2)OCO3)c(O)cc1O
3. Cc1ccc(NC(=O)NC2(C(=O)NCc3ccco3)CCCCC2)cc1
4. COc1ccccc1N(CC(=O)Nc1ccc2c(c1)OCO2)S(=O)(=O)c1ccccc1
5. Cc1cc(=O)n2c3c(sc2n1)C(=O)N(Cc1ccccc1)C3=O
6. CCCCN(C(=O)NC(=O)Nc1ccccc1OC)S(C)(=O)=O
7. COc1ccc(-c2cnc(N)nc2-c2ccc(OC)cc2O)cc1
8. CCN(CC)S(=O)(=O)c1ccc(F)cc1

1: -3% (inactive); 2: 46.1% (inactive); 3: -5.6% (inactive); 4: 7.5% (inactive); 5: 3.8% (inactive); 6: -3.1% (inactive); 7: -4% (inactive); 8: -8.3% (inactive)

Need cytotoxicity for each of these compounds.
1. CCOCCCNC(=O)C(c1ccc(OC)cc1)N(Cc1ccc2c(c1)OCO2)C(=O)CNC(C)=O (stereo unspecified)
2. COc1cccc(-c2nc(NCC3CCCO3)c3ccccc3n2)c1O (stereo unspecified)
3. COc1cc(-c2nnc3sc(-c4ccncc4)nn23)cc(OC)c1OC
4. CSc1nc(=NC(C)=O)ss1

["-6.5% (inactive)", "52.2% (active)", "-12.2% (inactive)", "-2% (inactive)"]
